The origin of these recorded values is ChEMBL document CHEMBL1126298.

- System: DC3F/AD
- PROTOCOL DESCRIPTION: Percent of cell viability remaining after incubating with a 10 uM concentration
- Format: functional, Cricetulus griseus
Mark Y for reported Viability of 80% or greater; mark N for anything smaller.

COMPOUND | ASSAY TARGET | GROUP LABEL
C=CCNc1nc(NCC=C)nc(N2CCC(NCC(c3c(C)cccc3C)c3c(C)cccc3C)CC2)n1 | DC3F/AD | Y
C=CCNc1nc(NCC)nc(N2CCC(NCC3c4ccccc4COc4ccccc43)CC2)n1 (centres undefined) | DC3F/AD | Y
C=CCNc1nc(NCC=C)nc(N2CCC(NCCC(c3ccc(OC)c(OC)c3)c3ccc(OC)c(OC)c3)CC2)n1 | DC3F/AD | Y
C=CCNc1nc(NC)nc(N2CCC(NCC3c4ccccc4COc4ccccc43)CC2)n1 (centres undefined) | DC3F/AD | N
C/C=C/CNc1nc(NC/C=C/C)nc(N2CCC(NC(c3ccc(F)cc3)c3ccc(F)cc3)CC2)n1.Cl.Cl | DC3F/AD | N
C=CCNc1nc(NCC=C)nc(N2CCC(N(C)CC(c3ccccc3)c3ccccc3)CC2)n1 | DC3F/AD | Y
C=CCNc1nc(NCC=C)nc(N2CCC(NCC3c4ccccc4Oc4ccccc43)CC2)n1 | DC3F/AD | Y
C=CCNc1nc(Cl)nc(N2CCC(NCC3c4ccccc4CCc4ccccc43)CC2)n1 | DC3F/AD | Y

----------
- Test system: DC3F/AD
- PROTOCOL DESCRIPTION: Increase in adriamycin uptake in modulator-treated cells relative to untreated cells at a concentration of 10 uM
- Format: functional, Cricetulus griseus
Mark t for reported Increase of 20 or greater; mark f for anything smaller.

TEST SMILES | GROUP LABEL
C=CCNc1nc(NCC=C)nc(N2CCC(NC3c4ccccc4CCc4ccccc43)CC2)n1 | t
C=CCNc1nc(NCC=C)nc(NCCN2CCC(NCC3c4ccccc4CCc4ccccc43)CC2)n1 | f
C=CCNc1nc(NCC=C)nc(N2CCC(NCC3c4ccccc4CCc4ccccc43)CC2)n1 | t
C=CCNc1nc(NCC=C)nc(N2CCC(NCC34CCC(c5ccccc53)c3ccccc34)CC2)n1 | t

----------
- Tested on: DC3F/AD
- PROTOCOL DESCRIPTION: Percent of cell viability remaining after incubating with a 10 uM concentration
- Assay type: functional, Cricetulus griseus

COMPOUND | ASSAY TARGET | Viability, %
C=CCNc1nc(NCC=C)nc(N2CCC(NCC(c3ccccc3)c3ccccc3)CC2)n1 | DC3F/AD | 77
C=CCNc1nc(NCC=C)nc(N2CCC(N(C)CC3c4ccccc4CCc4ccccc43)CC2)n1 | DC3F/AD | 69
C=CCNc1nc(NCC=C)nc(N2CCC(NCC34CCC(c5ccccc53)c3ccccc34)CC2)n1 | DC3F/AD | 87
C=CCNc1nc(NCC=C)nc(N2CCC(NC(c3ccccc3)c3ccc(F)cc3)CC2)n1.Cl (centres undefined) | DC3F/AD | 54
C=CCNc1nc(NCC=C)nc(N2CCC(NCC(c3ccccc3)S(=O)(=O)c3ccccc3)CC2)n1 (centres undefined) | DC3F/AD | 92
C=CCNc1nc(NCC=C)nc(N2CCC(NC(c3ccc(F)cc3)c3ccc(F)cc3)CC2)n1 | DC3F/AD | 56
C=CCNc1nc(NCC=C)nc(NCC2CCN(C3c4ccccc4CCc4ccccc43)CC2)n1 | DC3F/AD | 49
C=CCNc1nc(NCCC)nc(N2CCC(NCC3c4ccccc4CCc4ccccc43)CC2)n1 | DC3F/AD | 42
C=CCNc1nc(NCC=C)nc(N2CCN(NC(=O)C3c4ccccc4CCc4ccccc43)CC2)n1 | DC3F/AD | 67
C=CCNc1nc(NCC=C)nc(N2CCN(C(c3ccc(Cl)cc3)c3ccc(Cl)cc3)CC2)n1.CS(=O)(=O)O | DC3F/AD | 67
C=CCNc1nc(NCC=C)nc(N2CCC(NCC3c4ccccc4CCc4ccccc43)CC2)n1 | DC3F/AD | 54
C=CCNc1nc(NCC=C)nc(N2CCC(NCC3c4ccccc4COc4ccccc43)CC2)n1 (centres undefined) | DC3F/AD | 78
C=CCNc1nc(NCC=C)nc(N2CCN(C3c4ccccc4CCc4ccccc43)CC2)n1 | DC3F/AD | 87
C=CCNc1nc(NCC=C)nc(N2CCC(SCCC(c3ccccc3)c3ccccc3)CC2)n1 | DC3F/AD | 79
C=CCNc1nc(NCC=C)nc(N2CCC(NCC3c4ccccc4CSc4ccccc43)CC2)n1 (centres undefined) | DC3F/AD | 72
C=CCNc1nc(NCC=C)nc(N2CCN(NCC3c4ccccc4CCc4ccccc43)CC2)n1 | DC3F/AD | 81
C=CCNc1nc(NCC=C)nc(N2CCC(NC3c4ccccc4CCc4ccccc43)CC2)n1 | DC3F/AD | 91
C=CCNc1nc(NCCC)nc(N2CCC(NCC(c3ccccc3)c3ccccc3)CC2)n1 | DC3F/AD | 66
C=CCNc1nc(NCC=C)nc(NN2CCN(C(c3ccc(F)cc3)c3ccc(F)cc3)CC2)n1 | DC3F/AD | 78
